B1: LINE1-full (parent)
chain: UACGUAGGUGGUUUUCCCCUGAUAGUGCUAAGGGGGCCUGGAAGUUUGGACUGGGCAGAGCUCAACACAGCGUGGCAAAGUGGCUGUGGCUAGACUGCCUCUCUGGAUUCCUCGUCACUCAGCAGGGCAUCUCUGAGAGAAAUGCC

# Variants of: B1
# Protocol summary: self-cleavage, relative activity (ratio to wild type); higher = more cleavage; in vitro, sequencing; the parent is a self-cleaving ribozyme
# self-cleavage per record follows
// keep it numeric: no unit symbol after the value

Task: Query (variant): A59G C113U ; field requested: self-cleavage
Result: 0.06

Task: Query (variant): A69G C95A ; field requested: self-cleavage
Result: 0

Task: Query (variant): U87G U100C ; field requested: self-cleavage
Result: 0.28
